Hi there, I'd appreciate the recorded cAMP assay KOR 1 μM for every entry that follows.
- Tested target: Kappa opioid receptor (KOR) (Homo sapiens, UniProt P41145); note: unit not given here
- Sequence (P41145 whole entry): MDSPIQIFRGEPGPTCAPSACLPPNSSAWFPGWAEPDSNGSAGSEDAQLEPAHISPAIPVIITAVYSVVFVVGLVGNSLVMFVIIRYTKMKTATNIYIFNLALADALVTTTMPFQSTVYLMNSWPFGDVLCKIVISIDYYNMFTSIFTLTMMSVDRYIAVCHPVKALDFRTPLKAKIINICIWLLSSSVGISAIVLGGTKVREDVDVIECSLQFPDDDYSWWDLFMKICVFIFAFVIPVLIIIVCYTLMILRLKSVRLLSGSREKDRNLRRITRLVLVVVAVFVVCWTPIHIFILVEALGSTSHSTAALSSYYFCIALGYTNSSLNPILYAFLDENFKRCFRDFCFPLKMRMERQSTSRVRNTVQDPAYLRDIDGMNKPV
- Procedure details: cell-based
- Type: cell-based
Square brackets hold non-standard residues; d marks the D form. Peptide text beside a SMILES is read from it. Phe(4-NO2) = N[C@@H](Cc1ccc([N+](=O)[O-])cc1)C(=O)O; Phe(4-Cl) = N[C@@H](Cc1ccc(Cl)cc1)C(=O)O; Sar = CNCC(=O)O

Looking for the measured cAMP assay KOR 1 μM of CC(C)C[C@H](NC(=O)[C@H](Cc1ccc([N+](=O)[O-])cc1)NC(=O)CN(C)C(=O)[C@@H](N)Cc1ccc(O)cc1)C(=O)N[C@H](CCCNC(=N)N)C(=O)N[C@@H](CCCNC(=N)N)C(N)=O [SEQ ID NO. 5, NH2-Tyr-Sar-(4-NO2)Phe-Leu-DArg-Arg-NH2] (H-Y[Sar][Phe(4-NO2)]L[dR]R-NH2) , can you help?
33.44

CC(C)C[C@H](NC(=O)[C@H](Cc1ccccc1)NC(=O)CN(C)C(=O)[C@@H](N)Cc1ccc(O)cc1)C(=O)N[C@H](CCCNC(=N)N)C(=O)N[C@H](CCCNC(=N)N)C(N)=O [SEQ ID NO. 7, NH2-Tyr-Sar-Phe-Leu-DArg-DArg-NH2] (H-Y[Sar]FL[dR][dR]-NH2) , same question.
18.27

Same lookup for CC(C)C[C@H](NC(=O)[C@H](Cc1ccc([N+](=O)[O-])cc1)NC(=O)CN(C)C(=O)[C@@H](N)Cc1ccc(O)cc1)C(=O)N[C@@H](CCCNC(=N)N)C(=O)N[C@H](CCCNC(=N)N)C(N)=O [SEQ ID NO. 4, NH2-Tyr-Sar-(4-NO2)Phe-Leu-Arg-DArg-NH2] (H-Y[Sar][Phe(4-NO2)]LR[dR]-NH2) , please.
34.93

For CC(C)C[C@@H](NC(=O)[C@@H](Cc1ccccc1)NC(=O)[C@H](N)Cc1ccccc1)C(=O)N[C@H](CCCCN)C(=O)N1CCC(N)(C(=O)O)CC1 [SEQ ID NO. 35, DPhe-DPhe-DLeu-DLys-Cap-CO2H, reference compound] then?
25.93

Try this compound next: CC(C)C[C@H](NC(=O)[C@H](Cc1ccccc1)NC(=O)CN(C)C(=O)[C@@H](N)Cc1ccc(O)cc1)C(=O)N[C@@H](CCCNC(=N)N)C(=O)N[C@H](CCCNC(=N)N)C(N)=O [SEQ ID NO. 3, NH2-Tyr-Sar-Phe-Leu-Arg-DArg-NH2] (H-Y[Sar]FLR[dR]-NH2)
27.24

Now consider CC(C)C[C@H](NC(=O)[C@H](Cc1ccccc1)NC(=O)CN(C)C(=O)[C@@H](N)Cc1ccc(O)cc1)C(=O)N[C@@H](CCCNC(=N)N)C(=O)N[C@@H](CCCNC(=N)N)C(N)=O [SEQ ID NO. 2, NH2-Tyr-Sar-Phe-Leu-Arg-Arg-NH2] (H-Y[Sar]FLRR-NH2) and answer again.
21.65

Follow-up entry: CC(C)C[C@H](NC(=O)[C@H](Cc1ccc(Cl)cc1)NC(=O)CN(C)C(=O)[C@@H](N)Cc1ccc(O)cc1)C(=O)N[C@@H](CCCNC(=N)N)C(=O)N[C@H](CCCNC(=N)N)C(N)=O [SEQ ID NO. 11, NH2-Tyr-Sar-(4-Cl)Phe-Leu-Arg-DArg-NH2] (H-Y[Sar][Phe(4-Cl)]LR[dR]-NH2)
27.7

Ok, now CC(C)C[C@H](NC(=O)[C@H](Cc1ccccc1)NC(=O)CN(C)C(=O)[C@@H](N)Cc1ccc(O)cc1)C(=O)N[C@H](CCCNC(=N)N)C(=O)N[C@@H](CCCNC(=N)N)C(N)=O [SEQ ID NO. 6, NH2-Tyr-Sar-Phe-Leu-DArg-Arg-NH2] (H-Y[Sar]FL[dR]R-NH2)
14.22
